Origin of measurements: ChEMBL document CHEMBL2321795

A short record of IC50 observed with Voltage-gated inwardly rectifying potassium channel KCNH2 (Homo sapiens) follows.
Sequence (Q12809 whole entry): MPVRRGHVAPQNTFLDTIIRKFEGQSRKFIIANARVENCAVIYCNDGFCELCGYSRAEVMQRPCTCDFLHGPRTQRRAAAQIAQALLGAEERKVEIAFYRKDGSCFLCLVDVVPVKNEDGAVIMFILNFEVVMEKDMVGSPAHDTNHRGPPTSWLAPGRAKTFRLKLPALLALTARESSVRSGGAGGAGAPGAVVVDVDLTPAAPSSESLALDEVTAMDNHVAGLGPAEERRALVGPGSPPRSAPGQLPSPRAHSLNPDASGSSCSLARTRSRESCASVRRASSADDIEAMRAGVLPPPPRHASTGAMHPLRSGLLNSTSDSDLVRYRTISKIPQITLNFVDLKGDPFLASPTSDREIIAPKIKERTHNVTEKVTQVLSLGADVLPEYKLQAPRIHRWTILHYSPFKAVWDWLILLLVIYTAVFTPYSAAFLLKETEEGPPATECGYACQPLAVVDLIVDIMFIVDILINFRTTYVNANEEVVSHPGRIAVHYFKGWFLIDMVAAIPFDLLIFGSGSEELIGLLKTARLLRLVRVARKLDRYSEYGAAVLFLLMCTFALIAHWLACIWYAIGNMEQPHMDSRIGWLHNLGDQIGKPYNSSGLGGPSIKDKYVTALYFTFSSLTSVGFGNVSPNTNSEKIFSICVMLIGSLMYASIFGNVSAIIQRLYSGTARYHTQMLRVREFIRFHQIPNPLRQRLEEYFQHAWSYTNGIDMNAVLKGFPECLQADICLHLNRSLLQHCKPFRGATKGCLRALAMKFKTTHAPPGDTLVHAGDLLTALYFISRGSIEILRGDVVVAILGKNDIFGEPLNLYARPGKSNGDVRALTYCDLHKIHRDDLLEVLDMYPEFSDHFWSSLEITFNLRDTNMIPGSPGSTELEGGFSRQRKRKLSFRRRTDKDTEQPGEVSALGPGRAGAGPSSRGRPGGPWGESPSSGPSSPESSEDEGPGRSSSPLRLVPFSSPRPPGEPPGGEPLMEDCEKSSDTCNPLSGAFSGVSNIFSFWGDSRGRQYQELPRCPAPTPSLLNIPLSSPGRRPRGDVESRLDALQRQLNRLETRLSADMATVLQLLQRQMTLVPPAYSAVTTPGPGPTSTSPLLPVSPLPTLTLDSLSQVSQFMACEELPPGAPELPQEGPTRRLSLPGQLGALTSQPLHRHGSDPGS
attribute_measured: IC50

molecule: CN1C[C@@H](c2ccc(-c3ccc4c(c3)OC[C@H]3[C@H](CO)OC(=O)N43)cn2)OC1=O
attribute_measured: IC50
reported: > 40 µM
//
molecule: CC(=O)NC[C@@H]1OC(=O)N2c3ccc(-c4ccc(C#N)nc4)cc3OC[C@@H]12
attribute_measured: IC50
reported: 2.78 µM
//
molecule: O=C1OC(CO)CN1c1ccc(-c2ccc3c(c2)OC[C@H]2[C@H](CO)OC(=O)N32)cn1 (stereo partly drawn)
attribute_measured: IC50
reported: > 40 µM
